Target or test system: 3-hydroxy-3-methylglutaryl-coenzyme A reductase (Homo sapiens, UniProt P04035)
Sequence (P04035 whole entry): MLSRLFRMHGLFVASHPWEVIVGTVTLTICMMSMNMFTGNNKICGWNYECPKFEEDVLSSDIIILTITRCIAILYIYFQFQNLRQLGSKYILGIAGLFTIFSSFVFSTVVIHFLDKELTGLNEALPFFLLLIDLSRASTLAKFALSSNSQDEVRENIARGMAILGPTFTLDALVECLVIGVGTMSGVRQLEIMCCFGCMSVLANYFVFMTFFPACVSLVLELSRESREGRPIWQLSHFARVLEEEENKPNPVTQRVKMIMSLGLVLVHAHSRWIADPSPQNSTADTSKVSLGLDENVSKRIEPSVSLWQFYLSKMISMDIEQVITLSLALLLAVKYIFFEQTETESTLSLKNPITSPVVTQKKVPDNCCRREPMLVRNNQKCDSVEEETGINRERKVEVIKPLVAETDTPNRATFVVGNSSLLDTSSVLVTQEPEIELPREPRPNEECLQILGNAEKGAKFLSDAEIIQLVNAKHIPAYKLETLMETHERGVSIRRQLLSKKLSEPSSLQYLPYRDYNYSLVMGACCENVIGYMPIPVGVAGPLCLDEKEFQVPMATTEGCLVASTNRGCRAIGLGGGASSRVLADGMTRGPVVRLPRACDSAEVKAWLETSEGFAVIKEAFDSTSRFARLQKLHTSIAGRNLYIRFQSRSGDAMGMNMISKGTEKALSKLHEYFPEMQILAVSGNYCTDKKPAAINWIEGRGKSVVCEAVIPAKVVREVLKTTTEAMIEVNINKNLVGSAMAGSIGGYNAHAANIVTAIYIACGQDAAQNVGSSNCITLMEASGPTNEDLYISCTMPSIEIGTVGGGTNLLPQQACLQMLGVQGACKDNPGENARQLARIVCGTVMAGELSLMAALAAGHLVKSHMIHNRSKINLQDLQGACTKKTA
Method notes: Inhibition of cellular HMG-CoA reductase in cultures of human HEP G2 cells, determined by decreased incorporation of sodium [14C]acetate into cholesterol.
Recorded endpoint: IC50 (nM)
The figure you give is taken to be in nM; do not add the unit.

In [3]: df
Out[3]:
                              line_notation  value_measured
0  CC(C)c1nc(-c2ccccc2)nc(-c2ccc(F)cc2)c1/C=C/[C@@H]1C[C@@H](O)CC(=O)O1               5

Moving on to the next compound.
Asked: For CC(C)c1nc(-c2ccccc2)cc(-c2ccc(F)cc2)c1/C=C/[C@@H]1C[C@@H](O)CC(=O)O1 , what is its reported IC50?
Given back: 5
